From: the RNAGym collection of RNA variant scans (doi:10.1021/acssynbio.7b00057)

So I've got a bunch of variants here, and I need their aptazyme ON/OFF ratio values.
B1: Pistol ribozyme (parent)
chain: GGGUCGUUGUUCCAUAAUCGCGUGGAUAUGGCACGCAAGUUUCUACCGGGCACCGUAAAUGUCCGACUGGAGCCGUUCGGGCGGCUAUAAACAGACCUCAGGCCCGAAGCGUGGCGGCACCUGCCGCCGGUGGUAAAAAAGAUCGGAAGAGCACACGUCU

Variants of: B1
Assay Notes: aptazyme ON/OFF ratio, guanine; higher = stronger switching; co-transcriptional cleavage with and without guanine
Returns: the value as a bare number; no unit string appended.

Prompt line: Entry U7G U8C G9C U10C U11A : reported aptazyme ON/OFF ratio = ?
Response line: 1.39

Prompt line: Entry U7A U8A G9U C12G : reported aptazyme ON/OFF ratio = ?
Response line: 1.45

Prompt line: Entry U7G U8A G9C U11A C12U C13A : reported aptazyme ON/OFF ratio = ?
Response line: 1.03

Prompt line: Entry U7C U8A G9U U10C U11C C12G C13U : reported aptazyme ON/OFF ratio = ?
Response line: 1.07

Prompt line: Entry U7G U8G G9A U11A C12U : reported aptazyme ON/OFF ratio = ?
Response line: 1.44

Prompt line: Entry U7C G9U U10A U11C C12U : reported aptazyme ON/OFF ratio = ?
Response line: 1.1

Prompt line: Entry U7G U8A G9C U10G U11C C12G C13A : reported aptazyme ON/OFF ratio = ?
Response line: 1.03

Prompt line: Entry U7A U8G G9U U10G U11C C12G C13G : reported aptazyme ON/OFF ratio = ?
Response line: 1.13

Prompt line: Entry U7C U8C U10A U11C C12A C13G : reported aptazyme ON/OFF ratio = ?
Response line: 1.16

Prompt line: Entry U7A G9U U10A C12G : reported aptazyme ON/OFF ratio = ?
Response line: 1.28

Prompt line: Entry U7A U10C U11A C13G : reported aptazyme ON/OFF ratio = ?
Response line: 1.09

Prompt line: Entry U7C U8A U10A C12A C13A : reported aptazyme ON/OFF ratio = ?
Response line: 1.17

Prompt line: Entry U7C U8G G9A U10C U11C C12A C13U : reported aptazyme ON/OFF ratio = ?
Response line: 1.06

Prompt line: Entry U7A G9C U10G U11C C12A C13U : reported aptazyme ON/OFF ratio = ?
Response line: 1.06

Prompt line: Entry U8A U11C C12A : reported aptazyme ON/OFF ratio = ?
Response line: 1.29

Prompt line: Entry U7G U10G U11G C12A C13G : reported aptazyme ON/OFF ratio = ?
Response line: 1.1

Prompt line: Entry U7C U8C U10G C12A : reported aptazyme ON/OFF ratio = ?
Response line: 1.13

Prompt line: Entry U7C U8C G9C U11A C13U : reported aptazyme ON/OFF ratio = ?
Response line: 1.08

Prompt line: Entry U7A G9A U10C C13U : reported aptazyme ON/OFF ratio = ?
Response line: 1.12

Prompt line: Entry U8C G9A U11G C12G C13G : reported aptazyme ON/OFF ratio = ?
Response line: 1.19

Prompt line: Entry U7C U8C G9U U11C C12U C13G : reported aptazyme ON/OFF ratio = ?
Response line: 1.05

Prompt line: Entry U8C G9A U10A U11G C13G : reported aptazyme ON/OFF ratio = ?
Response line: 1.08

Prompt line: Entry U7C U8C G9C U11C C12G C13G : reported aptazyme ON/OFF ratio = ?
Response line: 1.2

Prompt line: Entry U7G U8A U11C C13G : reported aptazyme ON/OFF ratio = ?
Response line: 1.11

Prompt line: Entry U7G U8A G9A U10A U11C C12U C13U : reported aptazyme ON/OFF ratio = ?
Response line: 1.11

Prompt line: Entry U8A G9U U10A U11G C12A C13G : reported aptazyme ON/OFF ratio = ?
Response line: 1.19

Prompt line: Entry U7A U8G U10C U11G C12G : reported aptazyme ON/OFF ratio = ?
Response line: 1.33

Prompt line: Entry G9A U10C U11G C12U : reported aptazyme ON/OFF ratio = ?
Response line: 1.52

Prompt line: Entry U7A U8A U10C C12A C13G : reported aptazyme ON/OFF ratio = ?
Response line: 1.08

Prompt line: Entry U7G U8A U10A U11C C12A C13A : reported aptazyme ON/OFF ratio = ?
Response line: 1.26

Prompt line: Entry U7G U8G G9C U11A : reported aptazyme ON/OFF ratio = ?
Response line: 4.32

Prompt line: Entry G9U U10G U11C C12G C13A : reported aptazyme ON/OFF ratio = ?
Response line: 1.27

Prompt line: Entry U7C U8G G9A U10A U11C C12G C13U : reported aptazyme ON/OFF ratio = ?
Response line: 1.45

Prompt line: Entry U8A G9U C12G C13G : reported aptazyme ON/OFF ratio = ?
Response line: 1.23

Prompt line: Entry U8A G9U U10C C13G : reported aptazyme ON/OFF ratio = ?
Response line: 1.04

Prompt line: Entry U7C U8G G9U U10G U11A C12U C13U : reported aptazyme ON/OFF ratio = ?
Response line: 1.26

Prompt line: Entry U7G U8C G9A U10G U11G C12A C13U : reported aptazyme ON/OFF ratio = ?
Response line: 1.3

Prompt line: Entry G9A U10C U11C C12G : reported aptazyme ON/OFF ratio = ?
Response line: 1.18

Prompt line: Entry U7C U8G U10A U11A C13G : reported aptazyme ON/OFF ratio = ?
Response line: 1.13

Prompt line: Entry U10G U11C C13U : reported aptazyme ON/OFF ratio = ?
Response line: 1.04

Prompt line: Entry G9C U10C U11A C12U : reported aptazyme ON/OFF ratio = ?
Response line: 1.13

Prompt line: Entry U7C G9C U10C U11G C12A : reported aptazyme ON/OFF ratio = ?
Response line: 1.05

Prompt line: Entry G9U U11A C12G C13U : reported aptazyme ON/OFF ratio = ?
Response line: 1

Prompt line: Entry U8A G9A U10G U11G C12U : reported aptazyme ON/OFF ratio = ?
Response line: 1.2

Prompt line: Entry U8C G9C U10G C12G C13G : reported aptazyme ON/OFF ratio = ?
Response line: 1.09

Prompt line: Entry U7C U11C C12G : reported aptazyme ON/OFF ratio = ?
Response line: 1.35
